- assay notes: Caspase-3/7 induction in HepG2 cells by small molecules, qHTS cell viability counter screen (AID 1346981); further: nearly all actives have a fitted effect of over 30% in size
- test settings: CellTiter-Fluor fluorescence, 17 h; series mostly up to 92.4 µM
Records with an inconclusive call do not appear. Calls of active or inactive are those of the source. The call rests on the fitted dose curve; in most records, active means well fitted cell-killing curve with a large enough effect in the repeat runs; inconclusive means weak or mixed curves, or effect the other way; inactive means flat fitted curve, though single readings scatter.
measured quantity: outcome

1. CN(N=O)C(N)=O: inactive
2. O=C(Cc1ccccc1)OCc1ccccc1: inactive
3. CCOC(=O)C(c1c(O)c2ccccc2oc1=O)c1c(O)c2ccccc2oc1=O: inactive
4. ClCCOCOCCCl: inactive
5. COc1cc(OC)nc(Oc2cccc(Oc3nc(OC)cc(OC)n3)c2C(=O)O)n1: inactive
6. CSc1nc(N=[N+]=[N-])nc(NC(C)C)n1: inactive
7. Clc1cccc(N2CCNCC2)c1: inactive
8. O=CNC(N1CCN(C(NC=O)C(Cl)(Cl)Cl)CC1)C(Cl)(Cl)Cl (stereo not drawn): inactive
9. O=[N+]([O-])c1cccc2cccnc12: inactive
10. NC(=O)c1cc([N+](=O)[O-])cc([N+](=O)[O-])c1: inactive
11. CC(CCc1ccccc1)NC(C)C(O)c1ccc(O)cc1 (stereo not drawn): inactive
12. CC1CN1P(=O)(N1CC1C)N1CC1C (stereo not drawn): inactive
13. C[N+](=O)[O-]: inactive
14. COC(=O)COc1ccc(Cl)cc1Cl: inactive
15. CCC/C(=N\OCC)C1=C(O)CC(CC(C)SCC)CC1=O (stereo not drawn): inactive
16. CC(C)(C)C(=O)C(Oc1ccc(Cl)cc1)n1cncn1 (stereo not drawn): inactive
17. Cc1ncc2n1-c1ccc(Cl)cc1C(c1ccccc1F)=NC2: inactive
18. OC(c1ccc(F)cc1)(c1cncnc1)c1ccccc1Cl (stereo not drawn): inactive
19. CC(Oc1ccc(Oc2ncc(C(F)(F)F)cc2Cl)cc1)C(=O)O (stereo not drawn): inactive
20. CCSC(=O)N(CC)C1CCCCC1: inactive
21. CCS(=O)(=O)CCSP(=O)(OC)OC: inactive
22. CCCCP(CCCC)CCCC: inactive
23. CCOP(=O)(OCC)OP(=O)(OCC)OCC: inactive
24. OCCSCSCCO: inactive
25. N#Cc1ccncc1: inactive
26. O=C1CN2CCOC2(c2ccccc2Cl)c2cc(Cl)ccc2N1 (stereo not drawn): inactive
27. CC(C)(C)OC(=O)c1ncn2c1[C@@H]1CCCN1C(=O)c1c(Br)cccc1-2: inactive
28. Cc1cccc(C#N)c1: inactive
